# subject_of_test: MAPK8 (human) (UniProt P45983)
# Sequence (P45983 whole entry, looked up): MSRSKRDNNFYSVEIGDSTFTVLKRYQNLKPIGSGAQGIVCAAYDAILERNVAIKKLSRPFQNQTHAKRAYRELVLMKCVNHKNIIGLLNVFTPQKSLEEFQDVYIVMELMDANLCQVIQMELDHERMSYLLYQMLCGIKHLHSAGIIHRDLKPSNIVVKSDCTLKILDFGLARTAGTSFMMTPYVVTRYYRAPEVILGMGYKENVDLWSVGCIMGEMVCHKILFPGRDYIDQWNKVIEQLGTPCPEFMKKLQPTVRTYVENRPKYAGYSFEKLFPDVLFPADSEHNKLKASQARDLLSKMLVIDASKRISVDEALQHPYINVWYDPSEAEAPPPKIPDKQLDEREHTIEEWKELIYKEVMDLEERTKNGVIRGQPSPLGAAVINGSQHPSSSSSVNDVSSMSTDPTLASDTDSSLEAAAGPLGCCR
# procedure_text: radiometric filter-binding kinase assay, Kinase HotSpot
# condition_details: compound 0.5 µM; ATP 10 µM
property_name: residual activity (%)
Enter your answer as a number in %; do not include the unit.

QUERY: What does the data say about its residual activity? Entry: `N#C/C(=C\c1ccc(O)c(O)c1)C(=O)NCc1ccccc1`
RESULT: 99.1

QUERY: What does the data say about its residual activity? Entry: `C[C@@H]1CCN(C(=O)CC#N)C[C@@H]1N(C)c1ncnc2[nH]ccc12`
RESULT: 108

QUERY: What does the data say about its residual activity? Entry: `Cc1cncc2cccc(S(=O)(=O)N3CCCN(C(=O)CN)C[C@H]3C)c12`
RESULT: 98.8

QUERY: What does the data say about its residual activity? Entry: `N#Cc1c[nH]c2c[nH]/c(=N\Cc3cccnc3)cc2/c1=N\c1ccc(F)c(Cl)c1`
RESULT: 110

QUERY: What does the data say about its residual activity? Entry: `CC(C)(C)c1cc(C=C(C#N)C#N)cc(Br)c1O`
RESULT: 90.4

QUERY: What does the data say about its residual activity? Entry: `COc1ccc(C(=O)Nc2sc3c(c2C(N)=O)CCCC3)cc1OC`
RESULT: 94.7

QUERY: What does the data say about its residual activity? Entry: `c1ccc2c(-c3ccncc3)c[nH]c2c1`
RESULT: 100

QUERY: What does the data say about its residual activity? Entry: `Cc1nc(-c2ccccc2)c(-c2ccncc2)o1`
RESULT: 99.5

QUERY: What does the data say about its residual activity? Entry: `COc1cc2ncnc(Nc3ccc(OCc4ccccc4)cc3)c2cc1OC`
RESULT: 102

QUERY: What does the data say about its residual activity? Entry: `CCCCc1c(-c2ccc(OC)cc2)[nH]c2nccnc12`
RESULT: 74.5

QUERY: What does the data say about its residual activity? Entry: `Cc1cccc(-c2nc(C(C)(C)C)[nH]c2-c2ccc3c(c2)OCO3)n1`
RESULT: 95.7
